Assignment: determine reported Plant response rating (0 to 100), Waterhemp for the given molecules.
# Tested on: waterhemp (common waterhemp, Amaranthus rudis)
# protocol description: Test C pre-/postemergence greenhouse test, plant response rating 0-100
# Format: in vivo
# experimental conditions: Postemergence, 62 g ai/ha
Numbers only.

Past entries and their recorded results:
INSERT INTO results (molecule, quantitative_result) VALUES
  ('O=Cn1cc(C(=O)c2ccccc2)c(-c2cc(Cl)cc(Cl)c2)n1 [Compound 28]', 95),
  ('O=C(c1ccccc1)c1cn(S(=O)(=O)CC(F)(F)F)nc1-c1cc(Cl)cc(Cl)c1 [Compound 3]', 90),
  ('COC(OC)(c1ccccc1)c1c[nH]nc1-c1cc(Cl)cc(Cl)c1 [Compound 13]', 100);

Then there is this molecule:
For record CCOC(OCC)(c1cccs1)c1c[nH]nc1-c1cc(Cl)cc(Cl)c1 [Compound 27] the listed Plant response rating (0 to 100), Waterhemp is 95

====

Assignment: determine reported Plant response rating (0 to 100 scale), Velvetleaf for the given compounds.
# Tested on: velvetleaf (Abutilon theophrasti)
# protocol description: Test A pre-/postemergence greenhouse herbicide test, visual injury rating 0-100
# Assay type: in vivo
# experimental conditions: Preemergence, 500 g ai/ha
Numbers only.

Past entries and their recorded results:
INSERT INTO results (smiles_repr, quantitative_result) VALUES
  ('FC(F)(F)Cn1cc(C(=NNc2ccccc2)c2ccccc2)c(-c2cc(Cl)cc(Cl)c2)n1', 0),
  ('O=C(c1ccccc1)c1cn(C(=O)Cc2ccccc2)nc1-c1cc(Cl)cc(Cl)c1', 90),
  ('O=C(c1ccccc1)c1cn(S(=O)(=O)CC(F)(F)F)nc1-c1cc(Cl)cc(Cl)c1', 50),
  ('Clc1cc(Cl)cc(-c2n[nH]cc2C2(c3ccccc3)SCCS2)c1', 20),
  ('C=CCn1cc(C(=O)c2ccccc2)c(-c2cc(Cl)cc(Cl)c2)n1', 40),
  ('CCn1cc(C(=O)c2cccnc2)c(-c2cc(Cl)cc(Cl)c2)n1', 50),
  ('C#CCn1cc(C(=O)c2cccnc2)c(-c2cc(Cl)cc(Cl)c2)n1', 80);

Then there is this compound:
The reported velvetleaf (Abutilon theophrasti) Plant response rating (0 to 100 scale), Velvetleaf of `O=C(c1cncc(F)c1)c1c[nH]nc1-c1cc(F)cc(F)c1` is 90

====

Assignment: determine reported Plant response rating (0 to 100), Cupgrass, Woolly for the given molecules.
# System: woolly cupgrass (Eriochloa villosa)
# protocol description: Test C postemergence greenhouse test, plant response rating 0-100
# Assay type: in vivo
# experimental conditions: 125 g ai/ha
Give bare numbers.

INSERT INTO results (smiles_repr, quantitative_result) VALUES
  ('Cn1cc(C(=O)c2ccccc2)c(-c2cc(Br)cc(Br)c2)n1', 5);

List Plant response rating (0 to 100), Cupgrass, Woolly for every entry below, keeping the order given.
1. C=CCn1cc(C(=O)c2ccccc2)c(-c2cc(Cl)cc(Cl)c2)n1
2. CCn1cc(C(=O)c2ccccc2)c(-c2cc(Cl)cc(Cl)c2)n1

5
5

====

# Test system: large (Lg) crabgrass (Digitaria sanguinalis)
# protocol description: Test A pre-/postemergence greenhouse herbicide test, visual injury rating 0-100
# Type: in vivo
# experimental conditions: Postemergence, 125 g ai/ha
measured parameter: Plant response rating (0 to 100 scale), Crabgrass, Large

Past entries and their recorded results:
INSERT INTO measurements (smiles_repr, result) VALUES
  ('O=C(c1ccccc1)c1cn(S(=O)(=O)CCl)nc1-c1cc(Cl)cc(Cl)c1', 0),
  ('C=CCn1cc(C(=O)c2cccnc2)c(-c2cc(Cl)cc(Cl)c2)n1', 0),
  ('O=C(c1ccccc1)c1cn(S(=O)(=O)CC(F)(F)F)nc1-c1cc(Cl)cc(Cl)c1', 0);

List Plant response rating (0 to 100 scale), Crabgrass, Large for every entry below, keeping the order given.
1. O=C(c1cncc(F)c1)c1c[nH]nc1-c1cc(F)cc(F)c1
2. CCn1cc(C(=NNc2ccccc2)c2ccccc2)c(-c2cc(Cl)cc(Cl)c2)n1

0
0

====

# Tested on: galium (catchweed bedstraw, Galium aparine)
# protocol description: Test C pre-/postemergence greenhouse test, plant response rating 0-100
# Type: in vivo
# experimental conditions: Postemergence, 500 g ai/ha; scale 0 to 100
measured parameter: Plant response rating, Galium
Give bare numbers.

Past entries and their recorded results:
INSERT INTO measurements (smiles_repr, system, measured_parameter, quantitative_result) VALUES
  ('O=C(c1ccccc1)c1cn(S(=O)(=O)CC(F)(F)F)nc1-c1cc(Cl)cc(Cl)c1', 'galium (catchweed bedstraw, Galium aparine)', 'Plant response rating, Galium', 30),
  ('O=C(c1ccccc1)c1cn(S(=O)(=O)C(F)(F)F)nc1-c1cc(Cl)cc(Cl)c1', 'galium (catchweed bedstraw, Galium aparine)', 'Plant response rating, Galium', 50),
  ('Cn1cc(C(=O)c2ccccc2)c(-c2cc(Br)cc(Br)c2)n1', 'galium (catchweed bedstraw, Galium aparine)', 'Plant response rating, Galium', 10);

List Plant response rating, Galium for every entry below, keeping the order given.
1. CCn1cc(C(=O)c2cccs2)c(-c2cc(Cl)cc(Cl)c2)n1
2. CCOC(OCC)(c1cccs1)c1c[nH]nc1-c1cc(Cl)cc(Cl)c1

1. 35
2. 0

====

Assignment: determine reported Sandbur plant response rating for the given compounds.
# System: sandbur (southern sandbur, Cenchrus echinatus)
# protocol description: Test E pre-/postemergence greenhouse test, plant response rating 0-100
# Type: in vivo
# experimental conditions: Preemergence, 500 g ai/ha, scale 0 to 100

Past entries and their recorded results:
INSERT INTO measurements (smiles_repr, system, result) VALUES
  ('O=C(c1ccccc1)c1cn(S(=O)(=O)CCl)nc1-c1cc(Cl)cc(Cl)c1', 'sandbur (southern sandbur, Cenchrus echinatus)', 20),
  ('O=C(c1ccccc1)c1cn(CO)nc1-c1cc(Cl)cc(Cl)c1', 'sandbur (southern sandbur, Cenchrus echinatus)', 35),
  ('O=C(c1ccccc1)c1cn(S(=O)(=O)C(F)(F)F)nc1-c1cc(Cl)cc(Cl)c1', 'sandbur (southern sandbur, Cenchrus echinatus)', 0);

Then there is this compound:
For record `CCn1cc(C(=O)c2ccccc2)c(-c2cc(Cl)cc(Cl)c2)n1` the listed Sandbur plant response rating is 0

====

# System: bermudagrass (Cynodon dactylon)
# protocol description: Test C postemergence greenhouse test, plant response rating 0-100
# Format: in vivo
# experimental conditions: 125 g ai/ha
measured parameter: Plant response rating (0 to 100), Bermudagrass
Answers are plain numbers.

Past entries and their recorded results:
INSERT INTO measurements (compound, quantitative_result) VALUES
  ('CCCn1cc(C(=O)c2ccccc2)c(-c2cc(Cl)cc(Cl)c2)n1 [Compound 61]', 5),
  ('Fc1cccc(NN=C(c2ccccc2)c2c[nH]nc2-c2cc(Cl)cc(Cl)c2)c1 [Compound 58]', 0),
  ('Fc1ccc(NN=C(c2ccccc2)c2c[nH]nc2-c2cc(Cl)cc(Cl)c2)cc1 [Compound 35]', 0),
  ('Clc1cc(Cl)cc(-c2n[nH]cc2C(=NNc2ccccc2Cl)c2ccccc2)c1 [Compound 66]', 0),
  ('ON=C(c1ccccc1)c1c[nH]nc1-c1cc(Cl)cc(Cl)c1 [Compound 50]', 0);

For record CCn1cc(C(=O)c2ccccc2)c(-c2cc(Br)cc(Br)c2)n1 [Compound 38] the listed Plant response rating (0 to 100), Bermudagrass is 0

====

# Tested on: sedge, umbrella (small-flower umbrella sedge, Cyperus difformis)
# protocol description: Test B flooded paddy test, plant response rating 0-100
# Assay type: in vivo
# experimental conditions: Flood, 250 g ai/ha; scale 0 to 100 (0 no effect, 100 complete control); 13 to 15 days
Assignment: determine reported Plant response rating, Sedge, Umbrella for the given molecules.
Answers are plain numbers.

INSERT INTO assay_data (smiles_repr, measured_parameter, quantitative_result) VALUES
  ('Cn1cc(C(=NN2CCCC2)c2ccccc2)c(-c2cc(Cl)c(Cl)c(Cl)c2)n1', 'Plant response rating, Sedge, Umbrella', 70),
  ('O=C(c1ccccc1)c1cn(S(=O)(=O)CC(F)(F)F)nc1-c1cc(Cl)cc(Cl)c1', 'Plant response rating, Sedge, Umbrella', 0),
  ('Cn1cc(C(=O)c2ccccc2)c(-c2cc(Cl)c(Cl)c(Cl)c2)n1', 'Plant response rating, Sedge, Umbrella', 0);

Then there is this molecule:
For record `Clc1cccc(NN=C(c2ccccc2)c2c[nH]nc2-c2cc(Cl)cc(Cl)c2)c1` the listed Plant response rating, Sedge, Umbrella is 0

====

# Tested on: johnsongrass (Sorghum halepense)
# protocol description: Test C pre-/postemergence greenhouse test, plant response rating 0-100
# Format: in vivo
# experimental conditions: Postemergence, 500 g ai/ha; scale 0 to 100
measured parameter: Plant response rating, Johnsongrass
Numbers only.

Past entries and their recorded results:
INSERT INTO measurements (compound, measured_parameter, quantitative_result) VALUES
  ('Clc1cc(Cl)cc(-c2n[nH]cc2C(=NNc2ccccc2Cl)c2ccccc2)c1 [Compound 66]', 'Plant response rating, Johnsongrass', 0),
  ('O=Cn1cc(C(=O)c2ccccc2)c(-c2cc(Cl)cc(Cl)c2)n1 [Compound 28]', 'Plant response rating, Johnsongrass', 0),
  ('Fc1ccc(NN=C(c2ccccc2)c2c[nH]nc2-c2cc(Cl)cc(Cl)c2)cc1 [Compound 35]', 'Plant response rating, Johnsongrass', 0),
  ('CCn1cc(C(=O)c2cccs2)c(-c2cc(Cl)cc(Cl)c2)n1 [Compound 18]', 'Plant response rating, Johnsongrass', 5);

Then there is this compound:
For record O=C(c1ccccc1)c1cn(S(=O)(=O)CC(F)(F)F)nc1-c1cc(Cl)cc(Cl)c1 [Compound 3] the listed Plant response rating, Johnsongrass is 0
